Experiment: Half life in Balb/c mouse at 25 mg/kg, iv using compound formulated in Solutol HS15 and ethyl alcohol by HPLC/MS method
Assay type: ADME, organism-based
Set-up: dose 25 mg/kg, route intravenous
Details: in vivo
measurement kind: half-life
Give me the value, and tack the unit on after it.

> print(dat)
                  molecule.smiles  recorded.value
1  OCc1cn(Cc2cccc(Cl)c2)c2ccccc12          30 min

Now examine the next entry.
Return reported half-life. Input compound: "O=C(CC1CCCCC1)OCc1cn(Cc2cccc(Cl)c2)c2ccccc12"
60 min

###

Test system: Mus musculus
Experiment: Toxicity in Balb/c mouse assessed as serum ALP level at 150 mg/kg, ip dosed daily for 3 days using compound formulated in Solutol HS15 and ethyl alcohol measured on day 6
Assay type: organism-based
Set-up: dose 150 mg/kg, route intraperitoneal
Details: in vivo, 72 h
measurement kind: Activity (U/L)
State the answer as a number, implicitly in U/L.

> print(dat)
                  molecule.smiles  measurement.kind  recorded.value
1  OCc1cn(Cc2cccc(Cl)c2)c2ccccc12          Activity               3

Now examine the next entry.
Return reported Activity. Input compound: "O=C(CC1CCCCC1)OCc1cn(Cc2cccc(Cl)c2)c2ccccc12"
50

Cited source for all entries: ChEMBL document CHEMBL3351236
